assay-system: PDE7B (Homo sapiens, UniProt Q9NP56)
Construct: cell lysate containing full length PDE7A, PDE7B and PDE1C enzyme; made in house; host or cells: cell lysate
Sequence (Q9NP56 whole entry): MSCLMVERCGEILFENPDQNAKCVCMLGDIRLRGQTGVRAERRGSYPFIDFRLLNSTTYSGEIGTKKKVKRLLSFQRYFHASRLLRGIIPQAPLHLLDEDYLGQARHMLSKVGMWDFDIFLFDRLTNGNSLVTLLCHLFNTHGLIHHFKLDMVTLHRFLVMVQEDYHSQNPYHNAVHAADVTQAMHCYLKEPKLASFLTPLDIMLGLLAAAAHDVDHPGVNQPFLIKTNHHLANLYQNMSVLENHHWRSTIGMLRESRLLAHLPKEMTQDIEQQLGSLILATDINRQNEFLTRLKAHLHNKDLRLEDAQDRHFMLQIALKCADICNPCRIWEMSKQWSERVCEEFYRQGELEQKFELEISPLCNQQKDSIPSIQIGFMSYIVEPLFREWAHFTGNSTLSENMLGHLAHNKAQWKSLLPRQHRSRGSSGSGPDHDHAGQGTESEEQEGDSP
experiment-description: PDE7B [3H]-cAMP scintillation proximity assay (SPA) enzyme inhibition
Type: biochemical
condition-parameters: ratio PDE1C Ki / PDE7B Ki
Label scheme for 1C/7B selectivity: lower than 80 is NO, 80 and above is YES.

Recorded results for 6 molecules are shown here.
O=C(O)COc1cccc(-c2ccc(Cl)c3c2C2(CCCCC2)NC(=O)N3)c1 | YES
O=C1Nc2c(Cl)ccc(-c3ccc(F)c(C(=O)O)c3)c2C2(CCCCC2)N1 | YES
O=C1Nc2c(Cl)ccc(Oc3c(F)cccc3-c3n[nH]c(=O)[nH]3)c2C2(CCCCC2)N1 | YES
O=C1Nc2c(Cl)ccc(Oc3ccc(F)cc3-c3nn[nH]n3)c2C2(CCCCC2)N1 | NO
O=C1Nc2c(Cl)ccc(Oc3c(F)cccc3C(=O)O)c2C2(CCCCC2)N1 | YES
O=C1Nc2c(F)ccc(Oc3c(F)cccc3-c3nn[nH]n3)c2C2(CCCCC2)N1 | YES

For the next question, use this molecule.
Request: For this molecule, is measured 1C/7B selectivity 80 or higher? `O=C(O)COc1ccccc1Oc1ccc(Cl)c2c1C1(CCCCC1)NC(=O)N2`
Result: NO
